solubility values for the compounds below.
- ASSAY_TEXT: aqueous room temperature solubility
- Format: physicochemical
- DETAILS: water; aqueous, room temperature

# GIVEN_SMILES, solubility / µg/mL
rows = [
    ("CCOc1cc([C@@H](CS(C)(=O)=O)N2C(=O)c3cccc(NC(C)=O)c3C2=O)ccc1OC", 6.9),
    ("CCOc1cc([C@@H](CS(C)(=O)=O)N2Cc3cccc(NC(=O)C4CC4)c3C2=O)ccc1OC", 2),
]

* * *

- ASSAY_TEXT: pharmacokinetic parameters of Compound A in monkeys
- DETAILS: monkey, in vivo, 10 mg/kg PO
READOUT_KIND: half-life

# MOLECULE, READOUT_KIND, OBSERVED_VALUE
data = [
    ("CCOc1cc([C@@H](CS(C)(=O)=O)N2C(=O)c3cccc(NC(C)=O)c3C2=O)ccc1OC [Compound A]", "half-life", "~2 h"),
]
